system-tested: wild type PRC2 (wtPRC2) complex (Homo sapiens (Human))
protocol-details: EED LC-MS assay
Type: biochemical
conditions: EED LC-MS Qualified assay; read-out: (b) IC50
readout-kind: pIC50
// returns pIC50 (minus log10 of molar concentration), number only

Form field, pIC50 with wild type PRC2 (wtPRC2) complex (Homo sapiens (Human)), item `CS(=O)(=O)Nc1ccc(-c2cnc(NCc3c(F)ccc4c3CCO4)n3cncc23)cc1` : 7.48

Form field, pIC50 with wild type PRC2 (wtPRC2) complex (Homo sapiens (Human)), item `Cc1ncc(-c2cnc(NCc3c(F)ccc4c3CCO4)n3cnc(S(=O)(=O)c4ccccc4)c23)c(C)n1` : 7.53

Field pIC50 (wild type PRC2 (wtPRC2) complex (Homo sapiens (Human))), entry `CCOC(=O)c1ncn2c(NCc3c(F)ccc4c3CCO4)ncc(-c3ccc(S(C)(=O)=O)cc3)c12` : 8.23

Entry `Cc1ncccc1-c1cnc(NCc2c(F)ccc3c2CCO3)n2cnc(C(=O)NN)c12` : pIC50 on wild type PRC2 (wtPRC2) complex (Homo sapiens (Human)) = 7.87

For `Cc1ncc(-c2cnc(NCc3c(F)ccc4c3CCO4)n3cnc(-c4ncco4)c23)c(C)n1` on wild type PRC2 (wtPRC2) complex (Homo sapiens (Human)), measured pIC50 was 7.77

Field pIC50 (system: wild type PRC2 (wtPRC2) complex (Homo sapiens (Human))) for entry `N#Cc1ncn2c(NCc3c(F)ccc4c3CCO4)ncc(Br)c12` = 7.31

Entry `CC(C)Oc1ccc(-c2ncn3c(NCc4c(F)ccc5c4CCO5)ncc(-c4ccc(S(C)(=O)=O)cc4)c23)cc1` : pIC50 on wild type PRC2 (wtPRC2) complex (Homo sapiens (Human)) = 7.71

Lab note: compound `Cc1ncc(-c2cnc(NCc3c(F)ccc4c3CCO4)n3cnc(S(C)(=O)=O)c23)c(C)n1` tested on wild type PRC2 (wtPRC2) complex (Homo sapiens (Human)); recorded pIC50 was 7.88

###

Would you mind telling me the reported pIC50 of each entry?
Remember the convention: pIC50 equals -log10 of concentration in molar.

pIC50 on EED (1-441)-His protein (Homo sapiens (Human)) for CC(c1ccc(-c2cnc(NCc3c(F)ccc4c3CCO4)n3cnc(C#N)c23)cc1)N1CCCC1 (stereo not shown) is 8.25

Query `CS(=O)(=O)c1ccc(-c2cnc(NCc3c(F)ccc4c3CCO4)n3cncc23)cc1` on EED (1-441)-His protein (Homo sapiens (Human)); pIC50 returned: 8.07

Form field pIC50 for item `Cc1nn(CCO)c(C)c1-c1cnc(NCc2c(F)ccc3c2CCO3)n2cncc12` on EED (1-441)-His protein (Homo sapiens (Human)): 8.10

Measured pIC50 (EED (1-441)-His protein (Homo sapiens (Human))), entry `Cc1ncccc1-c1ncn2c(NCc3c(F)ccc4c3CCO4)ncc(-c3ccc(S(C)(=O)=O)cc3)c12` : 7.98

###

Observed pIC50 values for EED (1-441)-His protein (Homo sapiens (Human)) are listed in what follows.
Scale: negative log10 of molar concentration, which is what pIC50 denotes.

GET /value?item= `c1cc(CNc2ncc(-c3ccncc3)c3cncn23)c2ccoc2c1` &field=pIC50 returns 6.54

Reported pIC50 for `O=C(c1ccc(-c2cnc(NCc3c(F)ccc4c3CCO4)n3cncc23)cc1)N1CCCC1` was 7.79

What the record says about `N#Cc1ncn2c(NCc3c(F)ccc4c3CCO4)ncc(-c3ccc(N4CCNCC4)nc3)c12` : pIC50 is 8.35

For record `CN(C)Cc1ccc(-c2cnc(NCc3c(F)ccc4occc34)n3cncc23)cc1` the listed pIC50 is 7.24

Query `Cc1nn(C)c(C)c1-c1cnc(NCc2c(F)ccc3c2CCO3)n2cncc12` yields pIC50 of 7.74

// sample `Fc1ccc2c(c1CNc1ncc(-c3ccc(C(F)F)nc3)c3cncn13)CCO2` , its pIC50 was 7.82

Note to self: pIC50 recorded for `Cc1nc(C(F)(F)CN2CCCC2)ccc1-c1cnc(NCc2c(F)ccc3c2CCO3)n2cncc12` was 7.89

Noted for `Cc1cc(-c2cnc(NCc3c(F)ccc4c3CCO4)n3cncc23)n(C)n1` : its pIC50 reads 8.29

###

system-tested: wild type PRC2 (wtPRC2) complex (Homo sapiens (Human), UniProt O75530)
Sequence (O75530 whole entry): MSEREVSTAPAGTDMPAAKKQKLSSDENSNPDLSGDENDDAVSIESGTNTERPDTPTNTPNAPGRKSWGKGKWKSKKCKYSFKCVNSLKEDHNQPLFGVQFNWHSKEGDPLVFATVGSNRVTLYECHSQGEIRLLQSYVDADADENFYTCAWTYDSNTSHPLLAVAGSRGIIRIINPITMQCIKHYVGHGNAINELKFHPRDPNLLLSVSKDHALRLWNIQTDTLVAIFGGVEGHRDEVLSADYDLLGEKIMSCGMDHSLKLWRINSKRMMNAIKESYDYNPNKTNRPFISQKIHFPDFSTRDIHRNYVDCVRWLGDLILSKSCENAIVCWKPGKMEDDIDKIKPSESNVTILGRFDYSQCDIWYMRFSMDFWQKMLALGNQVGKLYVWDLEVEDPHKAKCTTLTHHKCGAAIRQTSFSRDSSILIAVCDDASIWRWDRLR
Sequence (Q15910 whole entry partner): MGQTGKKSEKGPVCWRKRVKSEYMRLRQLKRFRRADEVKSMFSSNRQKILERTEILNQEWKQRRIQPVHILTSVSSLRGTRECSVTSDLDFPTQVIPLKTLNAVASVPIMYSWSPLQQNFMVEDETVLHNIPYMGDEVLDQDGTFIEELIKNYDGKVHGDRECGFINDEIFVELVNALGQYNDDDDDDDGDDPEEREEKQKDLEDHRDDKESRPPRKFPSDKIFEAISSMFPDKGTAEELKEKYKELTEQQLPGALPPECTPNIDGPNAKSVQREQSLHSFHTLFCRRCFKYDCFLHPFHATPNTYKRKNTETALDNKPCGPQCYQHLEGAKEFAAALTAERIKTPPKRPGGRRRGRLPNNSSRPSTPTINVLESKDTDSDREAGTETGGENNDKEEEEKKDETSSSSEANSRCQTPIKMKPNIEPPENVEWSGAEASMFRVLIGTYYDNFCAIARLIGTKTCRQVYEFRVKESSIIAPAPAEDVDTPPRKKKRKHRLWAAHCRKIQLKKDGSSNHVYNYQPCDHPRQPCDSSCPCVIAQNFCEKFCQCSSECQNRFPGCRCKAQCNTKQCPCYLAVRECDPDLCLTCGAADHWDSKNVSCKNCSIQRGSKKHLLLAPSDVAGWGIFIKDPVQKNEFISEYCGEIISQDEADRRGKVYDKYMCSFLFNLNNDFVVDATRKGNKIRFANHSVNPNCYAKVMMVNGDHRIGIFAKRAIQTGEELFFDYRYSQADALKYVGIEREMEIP
Sequence (Q15022 whole entry partner): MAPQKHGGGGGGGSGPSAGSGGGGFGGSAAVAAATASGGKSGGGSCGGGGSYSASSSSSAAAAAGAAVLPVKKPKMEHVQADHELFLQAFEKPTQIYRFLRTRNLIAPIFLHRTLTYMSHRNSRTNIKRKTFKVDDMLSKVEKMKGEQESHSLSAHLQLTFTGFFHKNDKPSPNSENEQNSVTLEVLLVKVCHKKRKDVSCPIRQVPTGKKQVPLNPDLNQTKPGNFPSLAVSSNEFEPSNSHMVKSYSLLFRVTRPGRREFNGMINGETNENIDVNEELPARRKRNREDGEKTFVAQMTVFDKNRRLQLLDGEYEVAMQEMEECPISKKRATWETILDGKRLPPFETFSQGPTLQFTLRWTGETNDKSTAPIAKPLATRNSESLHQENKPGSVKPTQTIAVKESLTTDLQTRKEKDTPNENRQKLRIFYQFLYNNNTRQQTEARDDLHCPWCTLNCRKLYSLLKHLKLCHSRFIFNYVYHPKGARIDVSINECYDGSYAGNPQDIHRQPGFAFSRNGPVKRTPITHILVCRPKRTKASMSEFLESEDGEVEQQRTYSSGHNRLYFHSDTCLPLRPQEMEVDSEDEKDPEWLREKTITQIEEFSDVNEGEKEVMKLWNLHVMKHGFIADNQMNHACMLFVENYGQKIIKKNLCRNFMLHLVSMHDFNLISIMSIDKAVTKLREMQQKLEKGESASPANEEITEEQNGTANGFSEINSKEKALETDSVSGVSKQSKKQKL
protocol-details: EED LC-MS assay
Assay type: biochemical
conditions: EED LC-MS Qualified assay; read-out: (b) IC50
readout-kind: pIC50
pIC50 field: float, defined as -log10 of concentration (mol/L).

The compound identified as `CCOC(=O)c1ncn2c(NCc3c(F)ccc4c3CCO4)ncc(Br)c12` registered its pIC50 at 8.10

Recorded pIC50 (compound `Cc1c(-c2cnc(NCc3c(F)ccc4c3CCO4)n3cncc23)ccnc1CF` ): 7.60

Lab note: measured pIC50 of `Fc1ccc2c(c1CNc1ncc(-c3ccc(CN4CCC4)cc3)c3cncn13)CCO2` was 7.86

Kindly note the recorded pIC50 for `Cc1nc(OC(C)C)ncc1-c1cnc(NCc2c(F)ccc3c2CCO3)n2cncc12` , which is 7.72

Given item `CNC(=O)c1ncn2c(NCc3c(F)ccc4c3CCO4)ncc(-c3cccnc3C)c12` , the value recorded as its pIC50 is 7.57

Just so you know, measured pIC50 for `Fc1cc(-c2cnc(NCc3c(F)ccc4c3CCO4)n3cncc23)ccn1` came out at 7.59

Per the records, this compound ( `Cc1ncc(-c2cnc(NCc3c(F)ccc4c3CCO4)n3cnc(CO)c23)c(C)n1` ) has pIC50 equal to 7.73

Item: `Fc1ccc2c(c1CNc1ncc(-c3ccc(CN4CCCC4)cc3)c3cncn13)CCO2` | pIC50: 8.00

Note to self: pIC50 recorded for `Fc1ccc2c(c1CNc1ncc(-c3cccnc3F)c3cncn13)CCO2` was 7.66

###

system-tested: wild type PRC2 (wtPRC2) complex (Homo sapiens (Human), UniProt O75530)
protocol-details: EED LC-MS assay
Format: biochemical
conditions: EED LC-MS Qualified assay; read-out: (b) IC50
readout-kind: pIC50
Please keep in mind that pIC50 is minus log10 of the molar concentration; only the number is needed.

Form field pIC50, entry `N#Cc1ncn2c(NCc3c(F)ccc4c3CCO4)ncc(-c3cccnc3)c12` : 7.81

Entry under test: `N#Cc1ncn2c(NCc3c(F)ccc4c3CCO4)ncc(-c3ccc(N4CCNCC4)nc3)c12` . Its pIC50 was 7.75

Reported pIC50 ( `Cc1nn(C(C)C)cc1-c1cnc(NCc2c(F)ccc3c2CCO3)n2cncc12` ) = 7.64

get_value(item= `CC(=O)N1CCN(c2ccc(-c3cnc(NCc4c(F)ccc5c4CCO5)n4cnc(C#N)c34)cn2)CC1` , readout=pIC50) returns 7.53

`Cc1nn(CCO)c(C)c1-c1cnc(NCc2c(F)ccc3c2CCO3)n2cnc(C#N)c12` yielded pIC50 of 7.93

The recorded pIC50 for entry `Cc1nc(N2CCOCC2)ncc1-c1cnc(NCc2c(F)ccc3c2CCO3)n2cnc(C#N)c12` equals 7.96

Recorded pIC50 (compound `CN(C)CCc1ccc(-c2cnc(NCc3c(F)ccc4c3CCO4)n3cncc23)cn1` ): 7.61

Lookup result for `Cn1cncc1-c1cnc(NCc2c(F)ccc3c2CCO3)n2cnc(C#N)c12` ; measured pIC50: 7.76

// recorded pIC50 for `O=C(c1ccc(-c2cnc(NCc3c(F)ccc4c3CCO4)n3cncc23)cc1)N1CCCC1` : 7.38

Lookup result for `Cc1ncccc1-c1cnc(NCc2c(F)ccc3c2CCO3)n2cnc(-c3ccccc3)c12` ; measured pIC50: 8.02

The measured pIC50 associated with CC(c1ccc(-c2cnc(NCc3c(F)ccc4c3CCO4)n3cnc(C#N)c23)cc1)N1CCCC1 (centres unmarked) reads 7.82

The recorded pIC50 for entry `Cc1nc(C(F)F)ccc1-c1cnc(NCc2c(F)ccc3c2CCO3)n2cncc12` equals 7.90

Sure, the documented pIC50 for `CN1CCc2ccc(-c3cnc(NCc4c(F)ccc5c4CCO5)n4cncc34)cc2C1` is 7.38

Record summary for `Cc1ccc(-c2cnc(NCc3c(F)ccc4c3CCO4)n3cnc(C#N)c23)c(C)n1` : reported pIC50 = 7.78

For this compound ( `CCOC(=O)c1ncn2c(NCc3c(F)cccc3OC)ncc(-c3cnc(C)nc3C)c12` ), measured pIC50 is 7.61

Data point: `N#Cc1ncn2c(NCc3c(F)ccc4c3CCO4)ncc(-c3cccnc3C(F)F)c12` ; pIC50 = 7.25

Entry under test: `Fc1ccc2c(c1CNc1ncc(-c3cccnc3C(F)F)c3cncn13)CCO2` . Its pIC50 was 8.03

###

system-tested: wild type PRC2 (wtPRC2) complex (Homo sapiens (Human), UniProt O75530)
protocol-details: EED LC-MS assay
Format: biochemical
conditions: EED LC-MS Qualified assay; read-out: (b) IC50
readout-kind: IC50 (µM)
Entry rule: numbers only, all in µM.

Per the records, this compound ( CS(=O)(=O)c1ccc(-c2cnc(NCc3c(F)ccc4c3CCO4)n3cnc(C#N)c23)cn1 [Example 79] ) has IC50 equal to 0.0167

Per the records, this compound ( Cc1nc(S(C)(=O)=O)ccc1-c1cnc(NCc2c(F)ccc3c2CCO3)n2cncc12 [Example 38] ) has IC50 equal to 0.0208

Sure, the documented IC50 for Cn1nccc1-c1cnc(NCc2c(F)ccc3c2CCO3)n2cncc12 [Example 33] is 0.0159

The value of IC50 measured for the compound Cc1ncc(-c2cnc(NCc3c(F)ccc4c3CCO4)n3cnc(C#N)c23)c(C)n1 [Example 3] turned out to be 0.0137

What the record says about OCCNc1ncc(-c2cnc(NCc3c(F)ccc4c3CCO4)n3cncc23)cn1 [Example 44] : IC50 is 0.0195

The reported IC50 of the compound Cc1nn(CCO)c(C)c1-c1cnc(NCc2c(F)ccc3c2CCO3)n2cncc12 [Example 49] was 0.0135

// IC50 value for Cc1ncc(-c2cnc(NCc3c(F)ccc4c3CCO4)n3cnc([S+]([O-])c4ccccc4)c23)c(C)n1 (stereo not shown) [Example 14] : 0.0234

Cc1nc(N2CC(C)NC(C)C2)ncc1-c1cnc(NCc2c(F)ccc3c2CCO3)n2cnc(C#N)c12 (stereo not shown) [Example 83] has a reported IC50 of 0.0057

Measured IC50 of Cc1cnccc1-c1cnc(NCc2c(F)ccc3c2CCO3)n2cncc12 [Example 36] : 0.0179

GET /value?item= Cc1nc(C(F)(F)CN2CCCC2)ccc1-c1cnc(NCc2c(F)ccc3c2CCO3)n2cncc12 [Example 59] &field=IC50 returns 0.0255

Form: compound = Cc1ncccc1-c1cnc(NCc2c(F)ccc3c2CCO3)n2cnc(C(=O)NC3COC3)c12 [Example 106] ; IC50 = 0.0165

Item: CCOC(=O)c1ncn2c(NCc3c(F)cccc3OC)ncc(-c3cccnc3C)c12 [Example 99] | IC50: 0.0146

Lookup result for CS(=O)(=O)c1ncn2c(NCc3c(F)ccc4c3CCO4)ncc(-c3cccnc3)c12 [Example 102] ; measured IC50: 0.017

IC50 reported for this compound N#Cc1ncn2c(NCc3c(F)ccc4c3CCO4)ncc(-c3cccnc3CO)c12 [Example 78] : 0.0162

Note to self: IC50 recorded for Fc1ccc2c(c1CNc1ncc(-c3cccnc3)c3cncn13)CCO2 [Example 28] was 0.0218

Entry Cc1ncccc1-c1cnc(NCc2c(F)ccc3c2CCO3)n2cnc(C#N)c12 [Example 69] ; IC50 = 0.0141

For this compound ( N#Cc1ncn2c(NCc3c(F)ccc4c3CCO4)ncc(-c3ccc(CN4CCCC4)cc3)c12 [Example 71] ), measured IC50 is 0.018

Given item Cc1ccc(-c2cnc(NCc3c(F)ccc4c3CCO4)n3cnc(C#N)c23)cn1 [Example 72] , the value recorded as its IC50 is 0.0203

Documented IC50 of c1cc(CNc2ncc(-c3ccncc3)c3cncn23)c2ccoc2c1 [Example 65] : 0.0932

Reported IC50 for OCCc1ccc(-c2cnc(NCc3c(F)ccc4c3CCO4)n3cncc23)cn1 [Example 34] was 0.0401

IC50 measured on Cc1ccc(-c2cnc(NCc3c(F)ccc4c3CCO4)n3cncc23)c(C)n1 [Example 43] = 0.0126

get_value(item= CS(=O)(=O)c1ccc(-c2cnc(NCc3c(F)ccc4c3CCO4)n3cnc(-c4ccccc4)c23)cc1 [Example 110] , readout=IC50) returns 0.0094

Form field IC50, entry CN(C)c1ccc(-c2cnc(NCc3c(F)ccc4c3CCO4)n3cncc23)cn1 [Example 41] : 0.0146

For this compound ( CN(C)S(=O)(=O)c1ccc(-c2cnc(NCc3c(F)ccc4c3CCO4)n3cncc23)cc1 [Example 18] ), measured IC50 is 0.0151

Sample N#Cc1ccc(-c2cnc(NCc3c(F)ccc4c3CCO4)n3cncc23)cn1 [Example 31] ; IC50 observed: 0.0209

The compound identified as CC(=O)c1ncn2c(NCc3c(F)ccc4c3CCO4)ncc(-c3cnc(C)nc3C)c12 [Example 16] registered its IC50 at 0.0175

IC50 for Cc1cc(-c2cnc(NCc3c(F)ccc4c3CCO4)n3cncc23)n(C)n1 [Example 45] is 0.0084

Lab book: IC50 of Cc1cn(-c2cnc(NCc3c(F)ccc4c3CCO4)n3cnc(C#N)c23)cn1 [Example 6] noted as 0.0125

// recorded IC50 for Fc1ccc2c(c1CNc1ncc(-c3ccncc3)c3cncn13)CCO2 [Example 20] : 0.0441

response.value for Fc1ccc2c(c1CNc1ncc(-c3ccc(C(F)F)nc3)c3cncn13)CCO2 [Example 60] (field: IC50) = 0.0113

IC50 recorded for this compound, NS(=O)(=O)c1ccc(-c2cnc(NCc3c(F)ccc4c3CCO4)n3cncc23)cc1 [Example 23] , is 0.0129

GET /value?item= COc1cccc(F)c1CNc1ncc(-c2cccnc2C)c2c(C#N)ncn12 [Example 90] &field=IC50 returns 0.0568

Reported IC50 for Cc1ccc(-c2ncn3c(NCc4c(F)ccc5c4CCO5)ncc(-c4cccnc4C)c23)cn1 [Example 115] was 0.0176

Value of IC50 reported for the compound Cc1nc(C(=O)N(C)C)ccc1-c1cnc(NCc2c(F)ccc3c2CCO3)n2cncc12 [Example 63] is 0.0267
